Assay: Antagonist activity at P2Y12 receptor assessed as platelet aggregation by washed platelet assay
Reported IC50 values for a set of compounds
Numbers only here, please. The scale is nM.

Some solved entries appear below for comparison.
{"Compound": "CCNC(=O)Nc1ncnc2c1ncn2[C@@H]1O[C@H](CNC(=O)c2cccs2)[C@H]2O[C@H](/C=C/c3ccccc3)O[C@H]21", "IC50 (nM)": 2230}
{"Compound": "CCNC(=O)Nc1ncnc2c1ncn2[C@@H]1O[C@H](COCc2ccc(C(=O)O)cc2)[C@H]2O[C@H](/C=C/c3ccccc3)O[C@H]21", "IC50 (nM)": 1310}
{"Compound": "CCNC(=O)Nc1ncnc2c1ncn2[C@@H]1O[C@H](CNCc2ccccc2F)[C@H]2O[C@H](/C=C/c3ccccc3)O[C@H]21", "IC50 (nM)": 2550}

INPUT: I would be grateful if you could share the reported IC50 for CCNC(=O)Nc1ncnc2c1ncn2[C@@H]1O[C@H](CSCC(O)CO)[C@H]2O[C@H](/C=C/c3ccccc3)O[C@H]21 (stereo not given in full) .
OUTPUT: 9900

INPUT: Okay, and CCNC(=O)Nc1ncnc2c1ncn2[C@@H]1O[C@H](CS(=O)(=O)CC(=O)O)[C@H]2O[C@H](/C=C/c3ccccc3)O[C@H]21 ?
OUTPUT: 2480
